Cited source: the supplement of paper PMC10065799

target: Fes (UniProt P07332); assay: phosphorylation enrichment, bacterial display (enrichment ratio); higher = better substrate or ligand; peptides without Tyr show the background;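 note: 11-residue human phosphosite peptides and single-mutation variants displayed on the E. coli surface, counted by deep sequencing, each peptide's frequency after selection divided by its frequency in the unselected input library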;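 note: frequency after pTyr selection over input frequency; kinase dosed for 20-30% of maximal phosphorylation in three min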
Sequence (P07332 whole entry, looked up): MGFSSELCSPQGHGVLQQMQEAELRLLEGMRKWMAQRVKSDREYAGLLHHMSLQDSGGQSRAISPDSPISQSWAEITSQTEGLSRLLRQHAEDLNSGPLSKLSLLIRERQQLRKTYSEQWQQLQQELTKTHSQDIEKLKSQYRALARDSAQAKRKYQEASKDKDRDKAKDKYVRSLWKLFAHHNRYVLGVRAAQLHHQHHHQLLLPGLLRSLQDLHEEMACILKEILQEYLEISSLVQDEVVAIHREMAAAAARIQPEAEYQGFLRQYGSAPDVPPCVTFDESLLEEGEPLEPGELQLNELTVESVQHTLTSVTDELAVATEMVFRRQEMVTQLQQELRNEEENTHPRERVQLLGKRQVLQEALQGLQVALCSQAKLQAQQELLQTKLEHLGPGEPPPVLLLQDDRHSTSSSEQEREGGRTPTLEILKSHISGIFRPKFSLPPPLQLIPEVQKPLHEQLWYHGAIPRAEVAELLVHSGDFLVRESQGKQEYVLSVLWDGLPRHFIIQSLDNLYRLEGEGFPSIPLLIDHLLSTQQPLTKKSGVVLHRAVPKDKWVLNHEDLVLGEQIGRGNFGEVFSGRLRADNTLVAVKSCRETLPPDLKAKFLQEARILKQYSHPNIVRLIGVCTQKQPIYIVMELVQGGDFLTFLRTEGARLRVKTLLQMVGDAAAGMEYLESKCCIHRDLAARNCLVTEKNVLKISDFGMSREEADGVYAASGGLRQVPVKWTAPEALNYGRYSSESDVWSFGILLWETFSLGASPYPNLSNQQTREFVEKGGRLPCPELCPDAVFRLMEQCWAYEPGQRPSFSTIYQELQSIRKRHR
Would you mind labelling by phosphorylation enrichment? At or over 1 is true, under is false.

INSERT INTO results (residue_codes, classification) VALUES
  ('SENYTYIWWLN [PSG4_Y271_K267E]', 'true'),
  ('DLDTDYGSGYP [RNASEH2A_Y206]', 'true'),
  ('FMRGMYFRMKD [PLA2G6_Y541_YF]', 'true'),
  ('FEEDSYVERSQ [RET_Y905_K907E_YF]', 'true'),
  ('IMVFVYCRVFQ [ADRB2_Y219_S220C]', 'false'),
  ('RFLRGYQQDAY [HLA-A_Y137_R138Q]', 'false'),
  ('VFDMLYQVANL [USP24_Y1087_L1089V]', 'true'),
  ('TAPYNYSYIFK [RAB14_Y8]', 'false'),
  ('SGGGLYRDMGA [CBX8_Y321]', 'false'),
  ('NIKKEYAKMVQ [PMS2_Y181]', 'false'),
  ('GDKKAYVRLAP [RPL23A_Y137_E133D]', 'false'),
  ('FGGTVYHSPVS [PRC1_Y511]', 'false'),
  ('APIEDYGGGGG [B4GALT6_Y382]', 'false'),
  ('IGSQRYKLGVR [RB1_Y446]', 'false'),
  ('RSFPSYYTSHV [NEFL_Y442]', 'true'),
  ('EGTATYAAAVL [JUP_Y644]', 'false'),
  ('KKLHKYNTQFQ [PIK3R1_Y452_E451K]', 'false'),
  ('CRPPYYHRNCM [HGD_Y334_F329C]', 'false'),
  ('MGCVNYGAFIN [GLB1_Y485_R482C_YF]', 'true'),
  ('PCLLRYLQLDF [ASB10_Y457_R453C]', 'true'),
  ('LASLIYNFILF [AQP6_Y231_V234I]', 'true'),
  ('VHNLNYYKKTT [FGFR3_Y647_D646N]', 'false'),
  ('MEIHAYRKLSE [LMNA_Y376_L380S]', 'false'),
  ('VGTTAYVAPEA [IRAK4_Y354_M355V]', 'false'),
  ('NVFGNYNQQPS [HNRNPA2B1_Y306_D302V]', 'false'),
  ('LEVETYRRLLD [KRT12_Y429_I426V]', 'false');
